- systemName: D(2) dopamine receptor (Bos taurus, UniProt P20288)
- Sequence (P20288 whole entry): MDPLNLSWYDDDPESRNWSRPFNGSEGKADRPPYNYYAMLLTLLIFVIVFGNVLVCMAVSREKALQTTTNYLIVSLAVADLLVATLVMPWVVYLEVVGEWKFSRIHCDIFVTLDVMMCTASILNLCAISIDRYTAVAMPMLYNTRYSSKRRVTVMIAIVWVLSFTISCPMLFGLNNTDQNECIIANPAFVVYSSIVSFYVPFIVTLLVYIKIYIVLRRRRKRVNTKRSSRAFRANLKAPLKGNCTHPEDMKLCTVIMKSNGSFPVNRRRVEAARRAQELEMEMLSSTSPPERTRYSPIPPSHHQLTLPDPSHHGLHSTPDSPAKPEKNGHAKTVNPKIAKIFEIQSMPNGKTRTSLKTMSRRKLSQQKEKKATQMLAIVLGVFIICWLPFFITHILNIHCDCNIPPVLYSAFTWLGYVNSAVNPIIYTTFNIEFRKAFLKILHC
- protocolText: Ability to displace [3H]spiperone binding from anterior pituitary Dopamine receptor D2 in the presence of 100 uM GTP
pIC50: −log10 of the molar value.
Classify as follows. Reported pIC50 greater than or equal to 6: T. Reported pIC50 below: F.

- molecule: "CCCN(CCO)C1CCc2cc(O)c(O)cc2C1 (stereo not drawn)"
  classAssignment: "F"
- molecule: "CCCN(CCCl)C1CCc2cc(O)c(O)cc2C1 (stereo not drawn)"
  classAssignment: "T"
- molecule: "Oc1cc2c(cc1O)CC(NCCCl)CC2 (stereo not drawn)"
  classAssignment: "F"
- molecule: "CCCN(CCBr)C1CCc2cc(O)c(O)cc2C1 (stereo not drawn)"
  classAssignment: "F"

Check the entry CN(CCCl)C1CCc2c(ccc(O)c2O)C1 (stereo not drawn) : does pIC50 equal or exceed 6? F

Check the entry Oc1cc2c(cc1O)CC(NCCBr)CC2 (stereo not drawn) : does pIC50 equal or exceed 6? T

Check the entry CN(CCCl)C1CCc2cc(O)c(O)cc2C1 (stereo not drawn) : does pIC50 equal or exceed 6? F
